assay: Pharmacokinetic test in rats; format: in vivo, rat; conditions: rat, po; male SD rats, p.o. 10 mg/kg, plasma
measure: half-life

lineNotation	measure	result
CCC/C(O)=C1/C(=O)Oc2ccccc21	half-life	9.6 h

----------
Recorded concentration at 0.5 h for the following compounds
Assay: Distribution in brain tissues of rats (plasma and brain concentration)
Format: in vivo
Conditions: rat, plasma, po; male SD rats, 20 mg/kg p.o., sampling time 0.5 h; read-out: Measured value in plasma Concentration
Procedure: Plasma and brain tissue samples were collected from the animals at 0.5 h, 1 h, 4 h, and 24 h after administration. Collection of plasma: 0.2 mL of whole blood was collected by using an EP tube containing EDTA-K2 and centrifuged at 3500 g for 10 min, and then the upper plasma was collected and stored at −20° C. […] The concentration of compound in the plasma and brain tissue samples was quantified by liquid chromatography-tandem mass spectrometry (LC-MS/MS).

compound	concentration at 0.5 h, µg/mL
CCC/C(O)=C1/C(=O)Oc2ccccc21	241
CCCCC1OC(=O)c2ccccc21 (centres unmarked) [NBP, 3-n-butylphthalide]	0.026
